Test system: OVCAR-4 ovarian
PROTOCOL TEXT: NCI-60 one-dose screen, 48 h
CONDITION CONTEXT: 10 µM unless noted
About 83,000 compounds went through this panel and 20% of them were active in at least one assay; those are over-represented in the sample as a whole. Activity calls are given as the source filed them. Rule for the calls: active = growth percent below 10; inactive = the rest.
Labels: active, inactive

| MOLECULE | LABEL CLASS |
| --- | --- |
| COc1ccc2c(c1)C=CC(C#N)N2C(=O)c1ccccc1 (stereo unspecified) | inactive |
| COc1ccc(-c2nnc(COc3ccc(NC(=O)Nc4ccc(Cl)c(C(F)(F)F)c4)cc3F)o2)cc1 | inactive |
| CN(C)c1ccc(/C=C\N=Nc2ccc(Br)cc2)cc1 | inactive |
| O=C1CCCCN1CCCCC#Cc1ccccc1C#Cc1ccccn1 | inactive |
| CCC1CCc2nc3sc(C(=O)Nc4cccc(C)c4)c(N)c3cc2C1 (stereo unspecified) | inactive |
| COC(=O)c1ccc2nc(-c3cc4ccccc4n3C)n(CCCCOc3cc4c(cc3OC)C(=O)N3CCC[C@H]3C=N4)c2c1 | active |
| COc1cc(/C=C2\CCCC3=C2N=C2SC(C)=NN2C3c2cc(OC)c(OC)c(OC)c2)cc(OC)c1OC (stereo unspecified) | inactive |
| O=S(=O)(O)CCl | inactive |
| COc1cc(C2CC(c3c(C)[n+]([O-])c4ccccc4[n+]3[O-])=NN2)cc(OC)c1OC (stereo unspecified) | inactive |
| COc1ccc(OC)c(C(=O)c2oc3ccc(Br)cc3c2N)c1 | inactive |
| N=C(N)c1ccc(-c2ccc(-c3ccc(Cl)cc3)o2)nc1 | active |
| COc1ccc(C2CC(=O)Nc3c2c(C)nn3-c2nc3ccccc3[nH]2)cc1OC (stereo unspecified) | inactive |
| CC(=O)C1CCC(C)=CC1=O (stereo unspecified) | inactive |
| Cc1oc2nc[nH]c(=O)c2c1C(=O)/C=C/c1ccc(Cl)cc1Cl | inactive |
| O=C(CN1CCN(c2cc3c(cc2F)c(=O)c(C(=O)O)cn3C2CC2)CC1)Nc1ccc(C(=O)/C=C/c2ccccc2)cc1 | inactive |
| COc1cc2oc(-c3cccc(NC(=O)Nc4ccc5c(c4)OCO5)c3)cc(=O)c2c(OC)c1OC | inactive |
| O=S(=O)(NCCCNc1cc(-c2cn(-c3ccccc3)nc2-c2cccc(O)c2)ccn1)c1cccc2ccccc12 | inactive |
| NC(=O)NC(=O)/C=C/C(=O)OCCCl | inactive |
| CC(Br)C(Br)c1cc2c(cc1Br)OCO2 (stereo unspecified) | inactive |
| COc1ccc(/C=C/c2nc(N3CCOCC3)c3nc(Cl)c(Cl)cc3n2)cc1OC | inactive |
| Nc1ccccc1C#C/C=C\C#Cc1cccc(O)c1 | inactive |
| CCC(c1cccc(Br)c1)C(C(=O)O)c1ccc(OC)cc1 (stereo unspecified) | inactive |
| O=C(CC(O)c1ccncc1)c1ccccc1 (stereo unspecified) | active |
| Cc1cc(NC(=O)COC(=O)c2sc3cc(F)ccc3c2Cl)no1 | inactive |
| O=C1c2ccccc2C(=O)c2c1oc1oc3c(c(=O)c21)c(=O)n(-c1ccccc1)c1ccccc31 | inactive |
| CCCCCCCCCCCCCCCCCCOc1cccc(CCOP(=O)(O)OCC[N+](C)(C)C)c1 | inactive |
| Cc1ccnc2nc(C(=O)OCC(=O)Nc3ccc(-c4ccccc4)cc3)nn12 | inactive |
| CNC(=O)c1cc(Oc2ccc3c(c2)sc2nc(-c4ccc(Cl)cc4)cn23)ccn1 | inactive |
| CN1C(=O)[C@H]2c3c1cccc3[C@@]13NC(=O)O[C@H]1[C@H](CCC3(C)C)C2(C)C | inactive |
| CS(=O)(=O)N(c1cc(-c2ccc3ncnc(Nc4cccc(Cl)c4)c3c2)cnc1Cl)S(C)(=O)=O | inactive |
| Cc1ccccc1C(=O)c1ccccc1C(=O)O | inactive |
| CC[C@]1(O)C[C@@H]2CN(Cc3c([nH]c4ccccc34)[C@@](C(=O)OC)(c3cc4c(cc3OC)N(C)[C@H]3[C@@](O)(C(=O)OC)[C@H](OC(C)=O)[C@]5(CC)[C@@H]6C[C@@H]6CN6CC[C@]43[C@@H]65)C2)C1 | inactive |
| COc1ccc(-c2nc(-c3ccccc3)c(-c3ccccc3)n2C2CC2)cc1OC1CCCCC1 | inactive |
| CCN(CC)S(=O)(=O)c1ccc2[nH]c(=O)cc(C(=O)Nc3ccc(OC)cc3OC)c2c1 | inactive |
| COc1ccc(NC(=O)/N=c2\oc3c(OC)cccc3cc2-c2cc3ccccc3[nH]2)cc1 | inactive |
| NC(=O)c1cccc(N2Cc3ccccc3OC3=C2C(=O)c2c(O)ccc(O)c2C3=O)c1 | active |
| c1ccc2nc(-c3ccc4ccccc4n3)ccc2c1 | inactive |
| CC1(C)OC2COC3(C(=O)O)OC(C)(C)OC3C2O1 (stereo unspecified) | inactive |
| CC/C=C\C/C=C\C[C@H](O)C/C=C1/C(=O)C=C[C@H]1C/C=C\CCC(=O)OC | inactive |
| COc1ccc(/C=C/c2nc(N3CCOCC3)c3cc(F)c(F)cc3n2)cc1OC | inactive |
| Nc1c(C(=O)c2ccc(F)cc2)sc2nc3c(cc12)CCCC3 | inactive |

====

Test system: SNB-75 CNS
PROTOCOL TEXT: NCI-60 one-dose screen, 48 h (100 = growth as untreated, 0 = no growth, -100 = all killed)
CONDITION CONTEXT: 10 µM unless noted
This is part of a sample that, as a whole, favours compounds with a hit. Of some 83,000 tested, about 20% had one in any assay. Calls of active or inactive are those of the source. The calls were made as follows: active = growth percent below 10; inactive = the rest.

| COMPOUND | growth |
| --- | --- |
| CCN(CC)CCCNc1nc(C)cc(Nc2ccc3nc(C)cc(N)c3c2)n1 | 90.9% (inactive) |
| Clc1ccc([I+]c2ccc(Cl)cc2Cl)c(Cl)c1 | 34% (inactive) |
| CCn1cc(C2NC(=O)c3cc(F)ccc3N2)c2cccc(Cl)c21 (stereo unspecified) | -24.9% (active) |
| OC1CC2c3ccccc3C1c1ccccc12 (stereo unspecified) | 90.5% (inactive) |
| O=C(CC(O)c1ccncc1)c1ccccc1 (stereo unspecified) | -5.32% (active) |
| O=C(Nc1ccc(Cl)cc1)c1cc(-c2ccc(F)cc2)c2sc(=O)[nH]c2n1 | -5.08% (active) |

====

System: MDA-MB-435 melanoma
PROTOCOL TEXT: NCI-60 one-dose screen, 48 h
CONDITION CONTEXT: 10 µM unless noted
The panel holds about 83,000 compounds, 20% with a hit somewhere; the sample as a whole holds those more often. Active and inactive are the calls of the source. The calls were made as follows: active = growth percent below 10; inactive = the rest.
Labels: true (active), false (inactive)

| COMPOUND | TESTED SYSTEM | LABEL CLASS |
| --- | --- | --- |
| O=C(CCC(=O)OC1CCCC1)OC1CCCC1 | MDA-MB-435 melanoma | false |
| COc1cccc(NC(=O)c2sc3nc4c(cc3c2N)CCCC4)c1 | MDA-MB-435 melanoma | true |
| CCN(C(=O)c1cc2ccccc2[nH]1)[C@H]1CCC[C@@H](NCc2ccc(OC)cc2)C1 | MDA-MB-435 melanoma | false |
| O=C(O)C(Cc1ccccc1)N1C(=O)/C(=C/C(Cl)=C/c2ccc([N+](=O)[O-])cc2)SC1=S (centres undefined) | MDA-MB-435 melanoma | true |
| C=C1C(=O)O[C@H]2[C@H]1CC/C(COC(=O)NCCc1ccc(OC)cc1)=C\CC[C@@]1(C)O[C@@H]21 | MDA-MB-435 melanoma | false |
| COc1ccc(/C=C/c2nc(N3CCOCC3)c3cc(F)c(F)cc3n2)cc1OC | MDA-MB-435 melanoma | false |
| O=C(Nc1ccc(F)c(Cl)c1)c1n[nH]c(=O)c2ccccc12 | MDA-MB-435 melanoma | false |
| Cc1cc(Nc2nc(-c3ccncc3)nc3ccccc23)n[nH]1 | MDA-MB-435 melanoma | false |
| CC(=O)Nc1nc(C(=O)N2N=C(C)/C(=C/c3ccccc3)C2=O)cs1 | MDA-MB-435 melanoma | false |
| Cc1ccnc2nc(C(=O)OCC(=O)Nc3ccc(-c4ccccc4)cc3)nn12 | MDA-MB-435 melanoma | false |
| Cc1oc2nc[nH]c(=O)c2c1C(=O)/C=C/c1ccc(Cl)cc1 | MDA-MB-435 melanoma | true |
| Cc1ccc(C(=O)c2sc3nc4c(cc3c2N)CCCC4)c(C)c1 | MDA-MB-435 melanoma | true |
| CN(C)c1ccc(-c2ccc(-c3ccc(C(=N)N)cn3)o2)cc1 | MDA-MB-435 melanoma | true |
| CC[C@H](C)[C@H]1NC(=O)[C@@H](N[C@](C)(O)[C@@H](N)CC(C)C)[C@@H](C)OC(=O)[C@H](Cc2ccc(OC)cc2)N(C)C(=O)[C@@H]2CCCN2C(=O)[C@H](CC(C)C)NC(=O)[C@@H](C)C(=O)[C@H](C(C)C)OC(=O)C[C@@H]1O | MDA-MB-435 melanoma | true |
| Cc1ccc2c(c1)C(=O)C(c1c(-c3[nH]c(=O)c4ccc(C)cc4c3O)c(O)c3ccccc3c1O)=NC2=O | MDA-MB-435 melanoma | false |
| COc1cc(OC)c(C(=O)/C=C/c2ccc(C#N)cc2)c(OC)c1 | MDA-MB-435 melanoma | true |
| CC/C=C\C/C=C\C[C@H](O)C/C=C1/C(=O)C=C[C@H]1C/C=C\CCC(=O)OC | MDA-MB-435 melanoma | true |
| NC(=O)NC(=O)/C=C/C(=O)OCCCl | MDA-MB-435 melanoma | false |
| Cc1ccc(Oc2nc3ccccc3cc2-c2nnc(Cn3c(COc4ccccc4)nc4ccccc43)o2)cc1 | MDA-MB-435 melanoma | false |
| CNC(=O)Cc1nc(-c2cccc(NS(=O)(=O)c3c(F)cccc3F)c2F)c(-c2ccnc(Nc3ccccc3)n2)s1 | MDA-MB-435 melanoma | false |
| O=Nc1c(-c2c(O)[nH]c3ccc([N+](=O)[O-])cc23)[nH]c2ccc(O)cc12 | MDA-MB-435 melanoma | true |
| O=C(c1ccncc1)N1N=C(c2ccc(Cl)cc2)CC1c1c[nH]c2ccccc12 (centres undefined) | MDA-MB-435 melanoma | false |
| Cc1cccc2cc(/C=C/C(=O)/C=C/c3ccc(Cl)cc3)c(=O)[nH]c12 | MDA-MB-435 melanoma | true |
| O=c1c2cccc3c(Nc4ccc(F)cc4)ccc(c32)c2nc3ccccc3n12 | MDA-MB-435 melanoma | false |
| CCC(c1ccc(OC)cc1)C(CC)c1ccc(O)c(CN2CCCC2)c1 (centres undefined) | MDA-MB-435 melanoma | true |
| Clc1nc(Cl)c2ncn(C/C=C/Cn3cnc4c(Cl)nc(Cl)nc43)c2n1 | MDA-MB-435 melanoma | false |
| CCOC(=O)C1=C(C)NC(=O)NC1c1ccc(OCC(=O)N/N=C/c2ccc(Cl)cc2)cc1 (centres undefined) | MDA-MB-435 melanoma | false |
| Cc1cccc(-n2c(C)nc3ccc(NC(=O)NCCCl)cc3c2=O)c1 | MDA-MB-435 melanoma | false |
| O=C(CNC1CCCCC1)Nc1ccc(-c2nc3ccccc3s2)cc1 | MDA-MB-435 melanoma | false |
| COc1ccc(-c2nc3sccn3c2-c2ccnc(NCCCNS(=O)(=O)c3ccc(C)cc3)n2)cc1 | MDA-MB-435 melanoma | false |
| CCC(=O)Oc1cc(/C=C/C(=O)O[C@H]2C[C@H]3CN4CCc5c([nH]c6cc(OC)ccc56)[C@@H]4C[C@@H]3[C@@H](C(=O)OC)[C@@H]2OC)ccc1OC | MDA-MB-435 melanoma | false |
| O=C(C[N+](=O)[O-])c1ccc(Cl)cc1 | MDA-MB-435 melanoma | false |
| Nc1c(C(=O)Nc2cccc(Cl)c2Cl)sc2nc3c(cc12)C(=O)CCC3 | MDA-MB-435 melanoma | false |
| CCn1cc(C2NC(=O)c3cc(F)ccc3N2)c2cccc(Cl)c21 (centres undefined) | MDA-MB-435 melanoma | true |
| CC(C)(C)OC(=O)N1C/C(=C\c2cccs2)C(=O)/C(=C/c2cccs2)C1 | MDA-MB-435 melanoma | false |
| CN(C)c1ncc(-c2ccc(C(F)(F)F)cc2)c(NC2CCCCCC2)n1 | MDA-MB-435 melanoma | false |
| O=C1c2ccccc2C(=O)c2c(N=Nc3sc(=O)[nH]c3S)cccc21 | MDA-MB-435 melanoma | false |
| CC1Cc2c(N(C)C)ncnc2N(C)c2ccc(O)cc21 (centres undefined) | MDA-MB-435 melanoma | true |
| O=C(NCCCN1CCN(CCCNC(=O)C2CCCCC2)CC1)C1CCCCC1 | MDA-MB-435 melanoma | false |

The measurements presented in this section are drawn from PubChem BioAssay (NCI).
